Each entry below lists one item and its recorded pEC50 value.
# TARGET_SYSTEM: T1, recombinant dog Aggrecan G1-IGD-G2 (dog, UniProt Q28343 20-693, limits assumed)
# T1 construct: also called Dog G1-IGD-G2
# ASSAY_REMARKS: ELISA on recombinant G1-IGD-G2
pEC50: −log10 of the molar value.
EXPERIMENTAL_ENDPOINT: pEC50

- C01010094 (604F02-ALB26) (VHH, not shown: small tags and cut ends, also called C010100094) VHH: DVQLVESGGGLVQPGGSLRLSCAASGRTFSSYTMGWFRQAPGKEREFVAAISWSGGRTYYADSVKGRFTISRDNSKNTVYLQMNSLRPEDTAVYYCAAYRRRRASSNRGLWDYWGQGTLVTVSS: 8.59
- C01010113 (ALB26-606A07-606A07) (VHH, not shown: small tags and cut ends, also called AL326-606A07-606A07) VHH 1: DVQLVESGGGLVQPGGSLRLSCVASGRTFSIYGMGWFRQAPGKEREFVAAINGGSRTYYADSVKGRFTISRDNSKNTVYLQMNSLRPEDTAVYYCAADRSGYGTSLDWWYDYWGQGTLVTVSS VHH 2: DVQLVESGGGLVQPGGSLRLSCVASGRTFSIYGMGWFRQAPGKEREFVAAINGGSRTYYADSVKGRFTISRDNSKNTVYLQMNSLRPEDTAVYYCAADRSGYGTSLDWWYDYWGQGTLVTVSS: 8.52
- C01010118 (ALB26-114F08-114F08) (VHH, not shown: small tags and cut ends, also called C010100118) VHH 1: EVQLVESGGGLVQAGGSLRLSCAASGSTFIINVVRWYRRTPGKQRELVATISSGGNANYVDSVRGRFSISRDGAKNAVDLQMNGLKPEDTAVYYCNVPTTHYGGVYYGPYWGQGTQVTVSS VHH 2: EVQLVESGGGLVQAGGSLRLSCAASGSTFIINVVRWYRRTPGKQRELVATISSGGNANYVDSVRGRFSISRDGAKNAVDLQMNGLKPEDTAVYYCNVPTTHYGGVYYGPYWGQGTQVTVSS: 9.62
